- Test system: mouse's leaching cell solution (abdominal cavity cells)
- ASSAY_NOTES: Drug depressing effect on histamine leaching when treated with 48/80 compound
- Format: cell-based
- COND: testing drug 100(mg/ml); 48/80 compound; control 90.5, blank 9.0
Counter-ions that a name gives are not always drawn.
OUTCOME_MEASURE: Histamine Releasing rate (%)
Give the quantity in %, number only.

COMPOUND: CC1(C)[C@@H](O[C@H]2O[C@H](C(=O)[O-])[C@@H](O)[C@H](O)[C@H]2O[C@@H]2O[C@H](C(=O)[O-])[C@@H](O)[C@H](O)[C@H]2O)CC[C@]2(C)[C@H]3C(=O)C=C4[C@@H]5C[C@@](C)(C(=O)[O-])CC[C@]5(C)CC[C@@]4(C)[C@]3(C)CC[C@@H]12.[Na+].[Na+].[Na+] [Trisodium glycyrrhizinate, reference compound]
SCALE_UNIT: %
REPORTED: 65.5

COMPOUND: O=C1O[C@H](CO)[C@@H](O)[C@H](O)[C@H]1O
SCALE_UNIT: %
REPORTED: 8.9

COMPOUND: O=C(O)C(O)C(O)C(=O)O (stereo not shown)
SCALE_UNIT: %
REPORTED: 8.9

COMPOUND: CN(C)CCOC(c1ccccc1)c1ccccc1 [Diphenhydramine hydrochloride, reference compound]
SCALE_UNIT: %
REPORTED: 64.7

COMPOUND: O=C(O)/C=C/C(=O)O
SCALE_UNIT: %
REPORTED: 8.9

Challenge: // lookup Histamine Releasing rate (%) for CCCCCCC(O)C(=O)O (stereo not drawn) [α-hydroxy octanoic acid]
Response given: 9.0

Challenge: Entry under review: O=C(O)CC(O)(CC(=O)O)C(=O)O . Reported Histamine Releasing rate (%)?
Response given: 8.7

====

- Tested on: mouse's leaching cell solution (abdominal cavity cells)
- ASSAY_NOTES: Drug depressing effect on histamine leaching when treated with 48/80 compound
- Type: cell-based
- COND: testing drug 100(mg/ml); 48/80 compound; control 90.5, blank 9.0
OUTCOME_MEASURE: Histamine Releasing rate (%)
Write the value in % as a bare number.

MOLECULE: O=C(O)CO [α-hydroxy ethanoic acid]
Histamine Releasing rate (%): 9.0
--
MOLECULE: O=C(O)CC(O)C(=O)O (stereo not drawn) [Malic acid]
Histamine Releasing rate (%): 9.0

Next molecule, Histamine Releasing rate (%) to be filled in.
Challenge: Give the measured Histamine Releasing rate (%) of CC(O)C(=O)O (stereo not drawn) [Lactic acid] .
Response given: 8.9

====

- Tested on: oxazolone-coated mouse ear
- ASSAY_NOTES: Anti-delayed type allergy reaction (oxazolone ear inflammation)
- Assay type: in vivo
- COND: Mus musculus, topical; 1 mg/ear coated, ears weighed after 24 hr; read-out: Depression rate (%)
Where a name gives a salt, the structure may show the parent alone.
OUTCOME_MEASURE: inhibition in vivo at 1 mg/ear (%)
Write the number in % without appending the unit.

MOLECULE: O=C(O)CC(O)C(=O)O (centres unmarked)
OUTCOME_MEASURE: inhibition in vivo at 1 mg/ear
REPORTED: 96
//
MOLECULE: O=C(O)CC(O)(CC(=O)O)C(=O)O
OUTCOME_MEASURE: inhibition in vivo at 1 mg/ear
REPORTED: 100
//
MOLECULE: O=C(O)/C=C/C(=O)O
OUTCOME_MEASURE: inhibition in vivo at 1 mg/ear
REPORTED: 98
//
MOLECULE: CC(O)C(=O)O (centres unmarked)
OUTCOME_MEASURE: inhibition in vivo at 1 mg/ear
REPORTED: 97
//
MOLECULE: O=C(O)C(O)C(O)C(=O)O (centres unmarked)
OUTCOME_MEASURE: inhibition in vivo at 1 mg/ear
REPORTED: 97
//
MOLECULE: O=C1O[C@H](CO)[C@@H](O)[C@H](O)[C@H]1O
OUTCOME_MEASURE: inhibition in vivo at 1 mg/ear
REPORTED: 97
//
MOLECULE: CCCCCCC(O)C(=O)O (stereo not drawn) [α-hydroxy octanoic acid]
OUTCOME_MEASURE: inhibition in vivo at 1 mg/ear
REPORTED: 94

Okay, now this molecule:
Challenge: Record CN(C)CCOC(c1ccccc1)c1ccccc1 [Diphenhydramine hydrochloride, reference compound] : what is its inhibition in vivo at 1 mg/ear with oxazolone-coated mouse ear?
Response given: 20

====

Listing of recorded pIC50 by entry.
- ASSAYED_TARGET: xanthine oxidase
- Sequence (P47989 whole entry, species assumed): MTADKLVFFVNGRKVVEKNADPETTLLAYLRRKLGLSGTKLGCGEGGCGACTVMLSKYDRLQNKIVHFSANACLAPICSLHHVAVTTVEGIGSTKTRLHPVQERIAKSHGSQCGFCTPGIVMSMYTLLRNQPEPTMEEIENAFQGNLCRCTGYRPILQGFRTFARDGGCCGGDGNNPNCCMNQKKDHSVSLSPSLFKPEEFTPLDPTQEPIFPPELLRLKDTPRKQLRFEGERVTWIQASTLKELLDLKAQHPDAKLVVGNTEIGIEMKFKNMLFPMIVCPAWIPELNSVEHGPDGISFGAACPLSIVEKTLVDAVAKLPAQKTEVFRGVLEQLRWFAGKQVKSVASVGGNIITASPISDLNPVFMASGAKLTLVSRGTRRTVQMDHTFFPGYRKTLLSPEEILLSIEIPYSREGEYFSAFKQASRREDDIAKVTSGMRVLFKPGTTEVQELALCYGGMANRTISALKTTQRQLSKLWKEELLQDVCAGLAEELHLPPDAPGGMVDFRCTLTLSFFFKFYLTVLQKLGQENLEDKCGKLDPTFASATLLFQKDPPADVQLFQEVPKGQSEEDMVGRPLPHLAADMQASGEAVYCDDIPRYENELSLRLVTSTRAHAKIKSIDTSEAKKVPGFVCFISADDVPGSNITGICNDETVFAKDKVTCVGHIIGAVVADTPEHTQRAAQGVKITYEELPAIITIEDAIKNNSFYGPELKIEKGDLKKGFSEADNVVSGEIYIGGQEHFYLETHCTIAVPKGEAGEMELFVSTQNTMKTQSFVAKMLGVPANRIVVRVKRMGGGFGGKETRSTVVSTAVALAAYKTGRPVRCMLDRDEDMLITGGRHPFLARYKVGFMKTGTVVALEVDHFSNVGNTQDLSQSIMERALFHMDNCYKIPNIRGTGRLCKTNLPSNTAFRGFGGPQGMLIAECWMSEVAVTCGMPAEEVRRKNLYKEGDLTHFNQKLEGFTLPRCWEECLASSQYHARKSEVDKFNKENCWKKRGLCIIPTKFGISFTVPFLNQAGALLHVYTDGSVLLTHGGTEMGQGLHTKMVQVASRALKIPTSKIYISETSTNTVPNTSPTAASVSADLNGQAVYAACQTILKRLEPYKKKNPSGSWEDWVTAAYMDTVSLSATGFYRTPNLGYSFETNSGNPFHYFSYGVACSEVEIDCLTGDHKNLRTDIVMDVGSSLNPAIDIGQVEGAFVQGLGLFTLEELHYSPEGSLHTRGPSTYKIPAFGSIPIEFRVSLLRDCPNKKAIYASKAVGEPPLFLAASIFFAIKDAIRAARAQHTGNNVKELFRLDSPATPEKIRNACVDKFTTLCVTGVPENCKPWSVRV
- ASSAY_NOTES: Inhibition of xanthine oxidase
- COND: xanthine oxidase 0.01 u/ml, xanthine 5×10^−5M, pH=7.4, UV 295 nm; read-out: IC50 (concentration for depression of 50% activity of oxidase)
Please keep in mind that pIC50 is minus log10 of the molar concentration; only the number is needed.

Study these solved cases before continuing.
MOLECULE: O=C(O)/C=C/C(=O)O
REPORTED: 7.00
//
MOLECULE: O=C(O)CC(O)(CC(=O)O)C(=O)O
REPORTED: 7.00
//
MOLECULE: O=C(O)CC(O)C(=O)O (centres unmarked)
REPORTED: 6.95
//
MOLECULE: Nc1nc2ncc(CNc3ccc(C(=O)N[C@@H](CCC(=O)O)C(=O)O)cc3)nc2c(=O)[nH]1 [Folic acid, reference compound]
REPORTED: 6.18

Now look at this one.
Challenge: # lookup: pIC50 of O=C(O)C(O)C(O)C(=O)O (centres unmarked)
Response given: 6.99
